The compounds listed here are annotated with their TGI.
- Tested on: 786-0 renal
- Experiment Notes: NCI tumour cell line growth inhibition, 48 h

For orientation, consider the following solved cases.
Compound	Observed Measurement
O=C1C(Cl)=C(Cl)C(=O)N1c1ccc(F)cc1	31 µM
O=C(OCc1ccccc1)c1ccc(NCc2cc(O)ccc2O)cc1	2.67 µM
C[C@]12CC(C=O)C(=O)C(O)=C1CC[C@@H]1C2CC[C@@]2(C)C1CC[C@]2(C)O (stereo partly drawn)	44.4 µM
COc1cc2c3c(n([C@@H]4CCOC4)c(=O)c2cc1OC)-c1cc2c(cc1C3=O)OCO2	0.0183 µM
CCN(CC)/[N+]([O-])=N/OCOC	> 100 µM
CN(C)CC1C(=O)O[C@H]2[C@H]1CC/C(COC(=O)NCc1ccc(Cn3c(=O)sn(CCCI)c3=O)cc1)=C\CC[C@@]1(C)O[C@@H]21 (stereo partly drawn)	2.43 µM
CC(C)N1C(C)[C@@H](c2ccccc2)O[P@@]1(=O)CC1=CCCCC1 (stereo partly drawn)	> 100 µM
CSc1ccc(NC(=O)Nc2cc(C)ccn2)cc1	> 100 µM

Ask: Any idea what TGI came out for CC(=Nc1cccc(Cl)c1)c1ccncc1 on 786-0 renal?
Result: > 100 µM

Ask: Please state recorded TGI (tested on 786-0 renal) of COc1cc2c(c(OC)c1OC)C(=O)[C@@H](O)[C@H]2NC(N)=O
Result: > 100 µM

Ask: Please provide the recorded TGI for CCC[n+]1cc2cc3c(cc2c2c1-c1cc4c(cc1C2)OCO4)OCO3 (tested in a mixture with another compound) , tested on 786-0 renal.
Result: 10 µM

Ask: Form field: TGI recorded for Nc1nc(Cl)c(N)c(NCC2(CO)CCC(CCc3ccccc3)C2)n1 (stereo not drawn) with 786-0 renal (enter value)
Result: 61.2 µM

Ask: State its TGI on 786-0 renal: CC(=O)NC1CC(C(C)(C)NC(C)=O)CC=C1C (stereo not drawn)
Result: > 100 µM
